experiment: chemical genetic growth profiling, strain panel (AID 1159580);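 note: tested at 20 µM; growth read once vehicle control cultures reached saturation at 30 °C; 1 = growth at the plate median or of vehicle wells; lower values mean less growth of the strain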; details: S. cerevisiae deletion strains, growth OD, locus YBR021W, strain FUR4, stronger effect = lower value
About 2,000 (36%) of roughly 5,500 compounds were called active. Not shown: some 18% with an inconclusive outcome. Some of the results follow.
Items are presented alongside their recorded normalized growth.
measure name: normalized growth

>  <compound>
CC(=O)[C@H]1CCC2C3CC=C4C[C@@H](O)CC[C@]4(C)C3CC[C@@]21C (stereo not given in full)

>  <meas value>
0.962 (inactive)

$$$$
>  <compound>
CC(C)Oc1ccc2c(=O)cc(-c3ccccc3)oc2c1

>  <meas value>
0.844 (active)

$$$$
>  <compound>
CCN(CCCCOC(=O)c1ccc(OC)c(OC)c1)C(C)Cc1ccc(OC)cc1 (stereo not given)

>  <meas value>
0.989 (inactive)

$$$$
>  <compound>
Cn1c(=O)c2[nH]c(C3CCCC3)nc2n(C)c1=O

>  <meas value>
1.02 (inactive)

$$$$
>  <compound>
COc1ccc(-c2cc(=O)c3ccccc3o2)cc1OC

>  <meas value>
0.896 (inactive)

$$$$
>  <compound>
CNCCC=C1c2ccccc2CCc2ccccc21

>  <meas value>
1.02 (inactive)

$$$$
>  <compound>
COC(=O)C[C@H]1C(C)(C)C(=O)[C@@H]2CC3=C4CC(OC)O[C@@H](c5ccoc5)[C@]4(C)CCC3[C@@]1(C)C2=O (stereo not given in full)

>  <meas value>
1.01 (inactive)

$$$$
>  <compound>
CCC1C2CC3C4N(C)c5ccccc5C45CC(C2C5OC(C)=O)N3C1OC(C)=O (stereo not given)

>  <meas value>
1.01 (inactive)

$$$$
>  <compound>
O=c1c(-c2ccccc2)coc2cc(O)cc(O)c12

>  <meas value>
0.859 (inactive)

$$$$
>  <compound>
CC(=O)OC1CC2C(C)(C)CCCC2(C)C2CCC3(C)C(c4ccoc4)OC(=O)C4OC43C12C (stereo not given)

>  <meas value>
0.981 (inactive)

$$$$
>  <compound>
CC(=O)O[C@@H]1CC2C(C)(C)CCC(=O)[C@]2(C)C2CC[C@@]3(C)[C@H](c4ccoc4)OC(=O)C4OC43[C@@]21C (stereo not given in full)

>  <meas value>
0.989 (inactive)

$$$$
>  <compound>
COc1cc2cc[n+]3cc4c(OC)c(OC)ccc4cc3c2cc1OC

>  <meas value>
1.03 (inactive)

$$$$
>  <compound>
CN(C)CCC=C1c2ccccc2C=Cc2ccccc21

>  <meas value>
0.958 (inactive)

$$$$
>  <compound>
Cn1nnnc1SCC1=C(C(=O)O)N2C(=O)C(NC(=O)C(O)c3ccccc3)C2SC1 (stereo not given)

>  <meas value>
1.01 (inactive)

$$$$
>  <compound>
O=c1c2ccccc2[se]n1-c1ccccc1

>  <meas value>
0.0951 (active)

$$$$
>  <compound>
CC(=O)N(O)CCCCCNC(=O)CCC(=O)N(O)CCCCCNC(=O)CCC(=O)N(O)CCCCCN

>  <meas value>
0.845 (active)

$$$$
>  <compound>
CC(=O)O.CC(=O)O.[Cd]

>  <meas value>
0.106 (active)

$$$$
>  <compound>
COc1c(O)cccc1O

>  <meas value>
1.04 (inactive)

$$$$
>  <compound>
CC1NC(=O)NC1=O (stereo not given)

>  <meas value>
1.01 (inactive)

$$$$
>  <compound>
C[n+]1cc2c3c(ccc2c2ccc4cc5c(cc4c21)OCO5)OCO3

>  <meas value>
0.146 (active)

$$$$
>  <compound>
Nc1nc(N)c2nc(-c3ccccc3)c(N)nc2n1

>  <meas value>
1.01 (inactive)

$$$$
>  <compound>
COc1ccc2c(=O)cc(-c3ccccc3OC)oc2c1

>  <meas value>
0.797 (active)

$$$$
>  <compound>
CC(C)c1ccc2c(c1O)CC[C@H]1C3=C(CC[C@]21C)C(=O)OC3

>  <meas value>
0.903 (inactive)

$$$$
>  <compound>
CN1CCN2c3ccccc3Cc3ccccc3C2C1 (stereo not given)

>  <meas value>
0.992 (inactive)

$$$$
>  <compound>
COc1c(O)cc2c(-c3ccccc3)cc(=O)oc2c1OC

>  <meas value>
0.982 (inactive)

$$$$
>  <compound>
O=c1c2ccccc2oc2ccc(O)cc12

>  <meas value>
1.13 (inactive)

$$$$
>  <compound>
CSc1ccc2c(c1)C(N1CCN(C)CC1)Cc1ccccc1S2 (stereo not given)

>  <meas value>
0.364 (active)

$$$$
>  <compound>
C=C1C2CC[C@@]3(C)[C@H](c4ccoc4)OC(=O)C[C@]13O[C@H]1CC(=O)C(C)(C)[C@H](C(O)C(=O)OC)[C@@]21C (stereo not given in full)

>  <meas value>
0.993 (inactive)

$$$$
>  <compound>
COc1ccc(-c2cc(=O)c3ccccc3o2)cc1

>  <meas value>
0.949 (inactive)

$$$$
>  <compound>
N[C@@H]1CONC1=O

>  <meas value>
1.01 (inactive)

$$$$
>  <compound>
O=C1c2c(O)ccc(O)c2C(=O)c2c(NCCNCCO)ccc(NCCNCCO)c21

>  <meas value>
0.941 (inactive)

$$$$
>  <compound>
CC(=O)CC(c1ccccc1)c1c(O)c2ccccc2oc1=O (stereo not given)

>  <meas value>
0.996 (inactive)

$$$$
>  <compound>
CC1(C)O[C@@H]2CC3C4C[C@H](F)C5=CC(=O)C=C[C@]5(C)[C@@]4(F)[C@@H](O)C[C@]3(C)[C@]2(C(=O)CO)O1 (stereo not given in full)

>  <meas value>
0.995 (inactive)

$$$$
>  <compound>
C=CCCCCCCCCCCCC(O)CC(O)CO (stereo not given) (tested in a mixture with another compound)

>  <meas value>
0.426 (active)

$$$$
>  <compound>
COc1ccc2cc3[n+](cc2c1OC)CCc1cc2c(cc1-3)OCO2

>  <meas value>
0.847 (inactive)

$$$$
>  <compound>
O=C(/C=C/c1ccccc1)c1ccc(O)cc1

>  <meas value>
0.891 (inactive)

$$$$
>  <compound>
COc1ccc(C(=O)/C=C/c2ccccc2)cc1

>  <meas value>
0.782 (active)

$$$$
>  <compound>
CC1(C)O[C@@H]2CC3C4C[C@H](F)C5=CC(=O)C=CC5(C)C4C(O)CC3(C)[C@]2(C(=O)CO)O1 (stereo not given in full)

>  <meas value>
1.02 (inactive)

$$$$
>  <compound>
COc1cc([C@@H]2c3cc4c(cc3C(O[C@@H]3O[C@@H]5CO[C@@H](c6cccs6)OC5[C@H](O)[C@H]3O)C3COC(=O)[C@@H]32)OCO4)cc(OC)c1O (stereo not given in full)

>  <meas value>
1 (inactive)

$$$$
>  <compound>
CCC(CCC(C)[C@H]1CCC2C3CC=C4C[C@@H](O)CC[C@]4(C)C3CC[C@@]21C)C(C)C (stereo not given in full)

>  <meas value>
1.02 (inactive)

$$$$
>  <compound>
ClC(Cl)=C(c1ccc(Cl)cc1)c1ccc(Cl)cc1

>  <meas value>
1 (inactive)

$$$$
>  <compound>
COc1cc(O)c2c(=O)c(-c3ccc(O)cc3)coc2c1

>  <meas value>
0.832 (active)

$$$$
>  <compound>
CC1=C2C(=CO[C@H](C)[C@H]2C)C(=O)C(C(=O)O)=C1O

>  <meas value>
0.995 (inactive)

$$$$
>  <compound>
CN(C)CCC=C1c2ccccc2CCc2ccccc21

>  <meas value>
1 (inactive)

$$$$
>  <compound>
COc1c2c(cc3c1OCO3)CC[N+](C)=C2

>  <meas value>
1.02 (inactive)

$$$$

====

assay: chemical genetic growth profiling, strain panel (AID 1159580);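 note: tested at 20 µM; growth read once vehicle control cultures reached saturation at 30 °C; 1 = growth at the plate median or of vehicle wells; lower values mean less growth of the strain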; conditions: S. cerevisiae deletion strains, growth OD, locus YML120C, strain ndi1, stronger effect = lower value
In all, about 5,500 compounds went through this assay and about 2,000 (36%) were called active. Roughly 18% stayed inconclusive and do not appear here. This is one part of the list.
measure name: normalized growth

>  <compound>
CN1CCN2c3ccccc3Cc3ccccc3C2C1 (stereo not given)

>  <meas value>
1

$$$$
>  <compound>
FC(F)(F)C(Cl)Br (stereo not given)

>  <meas value>
1.03

$$$$
>  <compound>
N[C@@H]1CONC1=O

>  <meas value>
0.994

$$$$
>  <compound>
CCC(CCC(C)[C@H]1CCC2C3CC=C4C[C@@H](O)CC[C@]4(C)C3CC[C@@]21C)C(C)C (stereo not given in full)

>  <meas value>
1.01

$$$$
>  <compound>
NCCc1ccc(O)cc1

>  <meas value>
0.994

$$$$

====

assay: chemical genetic growth profiling, strain panel (AID 1159580);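 note: tested at 20 µM; growth read once vehicle control cultures reached saturation at 30 °C; 1 = growth at the plate median or of vehicle wells; lower values mean less growth of the strain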; settings: S. cerevisiae deletion strains, growth OD, locus YGL227W, strain vid30, stronger effect = lower value
About 2,000 (36%) of roughly 5,500 compounds were called active. Roughly 18% stayed inconclusive and do not appear here. Some of the results follow.
Measured normalized growth values are reported for all entries that follow.

>  <molecule>
O=C1CN2Cc3c(ccc(Cl)c3Cl)N=C2N1

>  <normalized growth>
0.969

$$$$
>  <molecule>
CC1(C)O[C@@H]2CC3C4C[C@H](F)C5=CC(=O)C=CC5(C)C4C(O)CC3(C)[C@]2(C(=O)CO)O1 (some centres not stated)

>  <normalized growth>
0.988

$$$$
>  <molecule>
O=c1cc(-c2ccc(O)c(O)c2)oc2ccccc12

>  <normalized growth>
0.991

$$$$
>  <molecule>
FC(F)(F)C(Cl)Br (configuration not stated)

>  <normalized growth>
1.04

$$$$
>  <molecule>
COc1ccc(-c2cc(=O)c3ccccc3o2)cc1

>  <normalized growth>
0.92

$$$$
>  <molecule>
COc1c(O)cc2c(-c3ccccc3)cc(=O)oc2c1OC

>  <normalized growth>
0.996

$$$$
>  <molecule>
O=c1cc(-c2cccc(O)c2)oc2ccc(O)cc12

>  <normalized growth>
0.953

$$$$
>  <molecule>
O=c1cc(-c2ccc(O)cc2)oc2ccc(O)cc12

>  <normalized growth>
0.96

$$$$
>  <molecule>
COc1cccc(-c2cc(=O)c3ccc(OC)cc3o2)c1

>  <normalized growth>
0.946

$$$$
>  <molecule>
CC1(C)O[C@@H]2CC3C4CCC5=CC(=O)C=C[C@]5(C)[C@@]4(F)[C@@H](O)C[C@]3(C)[C@]2(C(=O)CO)O1 (some centres not stated)

>  <normalized growth>
1.01

$$$$
>  <molecule>
COc1ccc(-c2cc(=O)c3ccccc3o2)cc1OC

>  <normalized growth>
0.912

$$$$
>  <molecule>
CC1=CCc2c(cc3oc(C)cc(=O)c3c2O)OC1

>  <normalized growth>
0.964

$$$$
